Test system: NCI-H522 lung
Assay name: NCI tumour cell line growth inhibition, 48 h
Outcome measure: TGI

What measured TGI is associated with O=[N+]([O-])c1ccc(S(=O)Cc2ccccc2)c([N+](=O)[O-])c1 (centres undefined) on NCI-H522 lung?
2.94 µM

Proceed to "COc1ccc(-c2cc(=O)c3c(C)cc(C)nc3[nH]2)cc1"
> 100 µM

Proceed to CCc1c(Cc2cccc3ccccc23)n2c(nc1=O)SCC2OCCO (centres undefined)
> 100 µM

Proceed to "CCCn1c(SC)nc(COC(=O)NC)c1COC(=O)NC"
> 100 µM

* * *

Test system: OVCAR-3 ovarian
Assay name: NCI tumour cell line growth inhibition, 48 h; in the data active = GI50 below about 0.43 µM; inactive = the rest
Outcome (select one): Y for active, N for inactive

Any idea what this test logged for "CC1(C)CC[C@H](Nc2ncc(C(F)(F)F)c(-c3c[nH]c4c(P(C)(C)=O)c(C#N)ccc34)n2)CN1" ?
Y

Proceed to "O=C(c1ccc2ccccc2c1)c1c(C(F)(F)F)n([O-])c2cc(F)c(F)cc2[n+]1=O"
N

Proceed to "O=C(Nc1ccc(F)cc1)c1ccc(NC2=C(Cl)C(=O)N(Cc3ccccc3)C2=O)cc1"
N

Proceed to "COc1ccc(-c2nc3sc(-c4ccc(Cl)cc4)cn3n2)cc1"
N

Proceed to "COc1cc(CCN)c2c(c1OC)SSSSS2"
Y

Proceed to "C=CCN(/C=C1/C(=O)O[C@H](COC)[C@@]2(C)C1=C(O)C(=O)C1=C2[C@H](OC(C)=O)C[C@]2(C)C(=O)CC[C@@H]12)CC=C"
N

Proceed to "CCC(=O)O[C@H]1CC[C@H]2[C@@H]3CC[C@H]4CC(=O)[C@H](C)C[C@]4(C)[C@H]3CC[C@]12C"
N

Proceed to "C/C(=N\O)c1cccc(Nc2cc(-n3ccnn3)c3ccccc3n2)c1"
N

Proceed to "COc1ccc(Nc2ncc(Br)c(NCCCNC(=O)C3CCC3)n2)cc1"
N
